# measurement-notes: qHTS profiling of Chloroquine Analogs as inhibitors of Plasmodium falciparum (3D7) proliferation
The source made the active and inactive calls. Calls follow the shape of the full dose curve.
Valid outcomes are listed here; reply with one: Yes = active, No = inactive

Problem: Recorded call for `O[C@H](c1cc(C(F)(F)F)nc2c(C(F)(F)F)cccc12)[C@H]1CCCCN1` ?
Solution: No

Problem: Would you mind telling me which call this test gave `CC(=O)N(O)CCCP(=O)(O)O` ?
Solution: Yes

Problem: What call does the record list for `Oc1cc(Cl)ccc1Oc1ccc(Cl)cc1Cl` ?
Solution: Yes

Where do the numbers come from? From PubChem BioAssay AID743325.
